# measurement-target: Cat L (UniProt P07711)
# experiment-summary: Cathepsin enzyme inhibition assay (fluorogenic peptide substrate Z-Val-Val-Arg-AMC), Cathepsin L
# Type: biochemical, human and mouse
# test-conditions: enzyme 1 nM, substrate 20 μM, pH 6.5; read-out: CatL IC50
pIC50: −log10 of the molar value. Where a name gives a salt, the structure may show the parent alone.
Category | rule: reported pIC50 within range, see low range (below 5), mid range (5 to below 6), high range (6 or more)

Below are worked cases with known answers.
[
  {
    "compound": "CCc1ccccc1S(=O)(=O)[C@H]1CN[C@H](C(=O)NC2(C#N)CC2)C1 [Example 11, Hydrochloride]",
    "class-name": "low range"
  },
  {
    "compound": "Cc1cc(N2C[C@H](S(=O)(=O)c3ccccc3C(F)(F)F)C[C@H]2C(=O)NC2(C#N)CC2)n(-c2cccc(Cl)c2)n1 [Example 233]",
    "class-name": "low range"
  },
  {
    "compound": "N#CC1(NC(=O)[C@@H]2C[C@@H](S(=O)(=O)c3ccc(N4CCCC4=O)cc3C(F)(F)F)CN2)CC1 [Example 26, hydrochloride]",
    "class-name": "low range"
  },
  {
    "compound": "N#CC1(NC(=O)[C@@H]2C[C@@H](S(=O)(=O)c3ccc(OCC(F)(F)F)cc3Cl)CN2C(=O)c2ccccc2C(F)(F)F)CC1 [Example 177]",
    "class-name": "mid range"
  }
]

Which of the defined bands does the recorded pIC50 of Cc1cc(N2C[C@H](S(=O)(=O)c3ccc(-n4cccn4)cc3Cl)C[C@H]2C(=O)NC2(C#N)CC2)n(C2CCC2)n1 [Example 491] sit within? mid range

Tag the class for CCN1CCN(c2ccc(S(=O)(=O)[C@@H]3C[C@H](C(=O)NC4(C#N)CC4)N(c4ncccc4C(F)(F)F)C3)c(Cl)c2)CC1 [Example 191] low range

###

# measurement-target: Cathepsin S (UniProt P25774)
# experiment-summary: Cathepsin enzyme inhibition assay (fluorogenic peptide substrate Z-Val-Val-Arg-AMC), Cathepsin S
# Type: biochemical, human and mouse
# test-conditions: enzyme 1 nM, substrate 20 μM, pH 6.5; read-out: CatS IC50
Where a name gives a salt, the structure may show the parent alone.
experimental-endpoint: IC50 (nM)
// return numeric value only (unit: nM, not printed)

Example results:
[
  {
    "compound": "N#CC1(NC(=O)[C@@H]2C[C@@H](S(=O)(=O)c3ccc(Cl)cc3Cl)CN2C(=O)C2(C(F)(F)F)CC2)CC1",
    "IC50, nM": 0.6
  },
  {
    "compound": "N#CC1(NC(=O)[C@@H]2C[C@@H](S(=O)(=O)c3cccc(Cl)c3Cl)CN2)CC1 [Example 51, Hydrochloride]",
    "IC50, nM": 26
  },
  {
    "compound": "CN1CCN(c2ccc(S(=O)(=O)[C@@H]3C[C@@H](C(=O)NC4(C#N)CC4)N(C(=O)C4(C)CC4)C3)c(C(F)(F)F)c2)CC1",
    "IC50, nM": 0.6
  },
  {
    "compound": "Cc1cc(N2C[C@H](S(=O)(=O)c3ccccc3C(F)(F)F)C[C@H]2C(=O)NC2(C#N)CC2)n(C2CCN(C(=O)OCc3ccccc3)CC2)n1",
    "IC50, nM": 4
  },
  {
    "compound": "CC(=O)Nc1cccc(-n2nc(C)cc2N2C[C@H](S(=O)(=O)c3ccccc3C(F)(F)F)C[C@H]2C(=O)NC2(C#N)CC2)c1",
    "IC50, nM": 0.06
  }
]

Turning now to a further record.
Result for "N#CC1(NC(=O)[C@@H]2C[C@@H](S(=O)(=O)c3ccccc3Cl)CN2C(=O)C2(c3cc(F)c(Cl)cc3Cl)CC2)CC1" , tested on Cathepsin S (UniProt P25774), IC50: 0.985

###

# measurement-target: Cat L (UniProt P07711)
# experiment-summary: Cathepsin enzyme inhibition assay (fluorogenic peptide substrate Z-Val-Val-Arg-AMC), Cathepsin L
# Type: biochemical, human and mouse
# test-conditions: enzyme 1 nM, substrate 20 μM, pH 6.5; read-out: CatL IC50
Structures can show the parent of a compound that is named as a salt.
IC50 vs 1 µM: less than gives yes; not less than gives no.

Solved entries (count: 10):
[
  {
    "compound": "N#CC1(NC(=O)[C@@H]2C[C@@H](S(=O)(=O)c3ccccc3C(F)(F)F)CN2C(=O)C2(c3ccc(Cl)cc3)CCC2)CC1",
    "class-name": "no"
  },
  {
    "compound": "N#CC1(NC(=O)[C@@H]2C[C@@H](S(=O)(=O)c3ccccc3Cl)CN2C(=O)C(F)(F)c2ccc(Cl)c(Cl)c2)CC1",
    "class-name": "yes"
  },
  {
    "compound": "N#CC1(NC(=O)[C@@H]2C[C@@H](S(=O)(=O)c3ccc(OCC(F)(F)F)cc3Cl)CN2C(=O)C2CC2(F)F)CC1 (some centres unmarked)",
    "class-name": "no"
  },
  {
    "compound": "N#CC1(NC(=O)[C@@H]2C[C@@H](S(=O)(=O)c3ccccc3C(F)(F)F)CN2C(=O)C(F)(F)F)CC1",
    "class-name": "no"
  },
  {
    "compound": "Cc1cc(N2C[C@H](S(=O)(=O)c3ccccc3Cl)C[C@H]2C(=O)NC2(C#N)CC2)n(C2CCC2)n1",
    "class-name": "no"
  },
  {
    "compound": "N#CC1(NC(=O)[C@@H]2C[C@@H](S(=O)(=O)c3ccc(OCC(F)(F)F)cc3C(F)(F)F)CN2c2nnc(C(F)(F)F)s2)CC1",
    "class-name": "no"
  },
  {
    "compound": "N#CC1(NC(=O)[C@@H]2C[C@@H](S(=O)(=O)c3ccccc3Cl)CN2C(=O)C2(c3cccc(C(F)(F)F)c3)CC2)CC1",
    "class-name": "yes"
  },
  {
    "compound": "Cc1cc(N2C[C@H](S(=O)(=O)c3ccccc3C(F)(F)F)C[C@H]2C(=O)NC2(C#N)CC2)n(-c2nccs2)n1",
    "class-name": "no"
  },
  {
    "compound": "CC(C)C(=O)N1C[C@H](S(=O)(=O)c2ccc(OCC(F)(F)F)cc2Cl)C[C@H]1C(=O)NC1(C#N)CC1",
    "class-name": "no"
  },
  {
    "compound": "COc1cccc(-n2nc(C)cc2N2C[C@H](S(=O)(=O)c3ccccc3C(F)(F)F)C[C@@H]2C(=O)NC2(C#N)CC2)c1",
    "class-name": "no"
  }
]

Please let me know if "CC(C)(C)OC(=O)N1C[C@H](S(=O)(=O)c2ccc(-n3cccn3)cc2Cl)C[C@H]1C(=O)NC1(C#N)CC1" shows IC50 below 1 µM. no

Please determine if "N#CC1(NC(=O)[C@@H]2C[C@@H](S(=O)(=O)c3ccccc3C(F)(F)F)CN2c2ccccc2)CC1" is below 1 µM in terms of IC50. no

IC50 under 1 µM? Item: "N#CCNC(=O)[C@@H]1C[C@@H](S(=O)(=O)c2ccccc2)CN1Cc1ccccc1" no

Criterion: IC50 strictly below 1 µM. Is it met by N#CC1(NC(=O)[C@@H]2C[C@@H](S(=O)(=O)c3ccc(N4CCC(F)(F)C4)cc3C(F)(F)F)CN2)CC1 [Example 28, hydrochloride] ? no

Given the entry "N#CC1(NC(=O)[C@@H]2C[C@@H](S(=O)(=O)c3ccccc3C(F)(F)F)CN2c2ccccc2[N+](=O)[O-])CC1" , would its reported IC50 be below 1 µM? no

Just wondering, is IC50 of "Cc1cc(N2C[C@H](S(=O)(=O)c3ccc(N4CC(F)(F)C4)cc3Cl)C[C@H]2C(=O)NC2(C#N)CC2)n(C2CCOCC2)n1" below 1 µM? no

Does the reported IC50 of the following compound sit strictly below 1 µM? "Cc1cc(N2C[C@H](S(=O)(=O)c3ccccc3Cl)C[C@H]2C(=O)NC2(C#N)CC2)n(Cc2ccc(Cl)cc2)n1" no

Quick check: IC50 of "N#CC1(NC(=O)[C@@H]2C[C@@H](S(=O)(=O)c3ccccc3Cl)CN2C(=O)[C@H](O)c2ccc(Cl)cc2)CC1" under 1 µM? yes

Below 1 µM on IC50? Entry N#CCNC(=O)C12CC(F)(F)CN1CCC2S(=O)(=O)c1ccccc1 (centres unmarked) [Example 116] no

Consider "N#CC1(NC(=O)[C@@H]2C[C@@H](S(=O)(=O)c3ccc(OCC(F)(F)F)cc3Cl)CN2C(=O)C2(c3cccc(C(F)(F)F)c3)CC2)CC1" . Does its IC50 lie strictly below 1 µM? yes

Does this compound meet the criterion IC50 < 1 µM? "CC(C)C[C@]1(C(=O)NC2(C#N)CC2)C[C@H](S(C)(=O)=O)[C@@H](c2ccc(F)cc2)N1C(=O)OC(C)(C)C" no

Would you kindly verify if IC50 of "N#CC1(NC(=O)[C@@H]2C[C@@H](S(=O)(=O)c3ccc(OCC(F)(F)F)cc3Cl)CN2CC2(c3ccc(Cl)cc3)CC2)CC1" is strictly less than 1 µM? no

Given "Cc1cc(N2C[C@H](S(=O)(=O)c3ccccc3C(F)(F)F)C[C@H]2C(=O)NC2(C#N)CC2)n(C2CCC2)n1" , is recorded IC50 strictly lower than 1 µM? no

Field: below-cutoff. Rule: recorded IC50 strictly less than 1 µM. Subject: N#CC1(NC(=O)[C@@H]2C[C@@H](S(=O)(=O)c3c(Cl)cccc3Cl)CN2)CC1 [Example 16, Hydrochloride] no

Lab note: IC50 threshold 1 µM. Does this compound come in strictly under it? "N#CC1(NC(=O)[C@@H]2C[C@@H](S(=O)(=O)c3ccc(OCC(F)(F)F)cc3Cl)CN2C(=O)C2(c3ccc(Cl)c(Cl)c3)CC2)CC1" yes

Please state whether IC50 is below 1 µM for "Cc1cc(N2C[C@H](S(=O)(=O)c3ccccc3C(F)(F)F)C[C@H]2C(=O)NC2(C#N)CC2)n(-c2ccnc(Cl)c2)n1" no
